# MEASUREMENT TARGET: EGFR (Homo sapiens, UniProt P00533)
# Sequence (P00533 669-1210): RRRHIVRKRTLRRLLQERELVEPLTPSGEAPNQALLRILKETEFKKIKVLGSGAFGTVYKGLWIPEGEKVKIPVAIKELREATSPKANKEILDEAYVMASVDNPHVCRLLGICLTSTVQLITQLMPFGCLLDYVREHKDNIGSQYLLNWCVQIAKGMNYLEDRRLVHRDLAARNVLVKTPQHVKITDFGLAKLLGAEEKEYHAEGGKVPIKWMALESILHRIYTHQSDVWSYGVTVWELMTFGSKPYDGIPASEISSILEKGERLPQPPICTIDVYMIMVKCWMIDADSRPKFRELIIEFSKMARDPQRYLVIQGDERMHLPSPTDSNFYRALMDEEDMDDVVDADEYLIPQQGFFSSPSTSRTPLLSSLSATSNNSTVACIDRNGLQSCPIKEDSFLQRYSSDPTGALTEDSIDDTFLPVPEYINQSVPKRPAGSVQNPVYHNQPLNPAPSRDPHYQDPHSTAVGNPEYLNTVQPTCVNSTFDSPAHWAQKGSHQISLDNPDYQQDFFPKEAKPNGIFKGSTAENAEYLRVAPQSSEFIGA
PARAMETER: pIC50
API: returns pIC50 as number; meaning -log10 of concentration in mol/L.

Example entries and their recorded answers appear below.
INSERT INTO results (compound, measurement_target, parameter, measurement) VALUES
  ('COc1cc(C2NC(=S)NC(C)=C2C(=O)OC(C)C)cc(OC)c1OC (stereo not shown)', 'EGFR (Homo sapiens, UniProt P00533)', 'pIC50', 7.01),
  ('COc1ccc(C2NC(=O)NC(C)=C2C(=O)OC(C)C)cc1O (stereo not shown)', 'EGFR (Homo sapiens, UniProt P00533)', 'pIC50', 7.04),
  ('CC1=C(C(=O)OC(C)C)C(c2cccc(O)c2)NC(=O)N1 (stereo not shown)', 'EGFR (Homo sapiens, UniProt P00533)', 'pIC50', 7.06);

Now for a further compound.
Give recorded pIC50 with EGFR (Homo sapiens, UniProt P00533) for the following compound: COc1cc(C2NC(=O)NC(C)=C2C(=O)OC(C)C)ccc1OCc1ccccc1 (stereo not shown)
7.08
